Test system: rat fat cells
test.protocol: Glucose transport in isolated rat fat cells (insulin-like activity)
Type: cell-based, rat (Wistar)
assay.conditions: concentration at 50% of the maximum stimulation achieved by the respective compound; rat fat cells, 2-[3H]-deoxyglucose; read-out: Glucose transport EC50
pEC50: −log10 of the molar value.
Please use TRUE whenever pEC50 is not below 5, and FALSE whenever it is.

[ask] Given the entry N[C@H]1[C@H](O[C@H]2[C@H](O)[C@@H](O)[C@H](OP(=O)(O)O)[C@H](O)[C@@H]2O)O[C@H](CO)[C@@H](O)[C@@H]1O[C@H]1O[C@H](CO[C@H]2O[C@H](COS(=O)(=O)O)[C@@H](O)[C@H](O)[C@@H]2O[C@H]2O[C@H](CO)[C@@H](O)[C@H](O)[C@@H]2O[C@H]2O[C@H](CO)[C@@H](O)[C@H](O)[C@@H]2O)[C@@H](O)[C@H](O)[C@@H]1O , answer whether its pEC50 meets or surpasses 5.
[reply] FALSE

[ask] Also O=[PH](O)OC[C@H]1O[C@H](OC[C@H]2O[C@H](OC[C@H]3O[C@H](OC[C@H]4O[C@H](OC[C@H]5O[C@H](O[C@H]6[C@H](O)[C@@H](O)[C@H](OP(=O)(O)O)[C@H](O)[C@@H]6O)[C@@H](O)[C@@H](O)[C@@H]5O)[C@@H](O)[C@@H](O)[C@@H]4O)[C@@H](O)[C@@H](O)[C@@H]3O)[C@@H](O)[C@@H](O)[C@@H]2O)[C@@H](O)[C@@H](O)[C@@H]1O , if possible.
[reply] FALSE

[ask] Repeat for the following compound: N[C@H]1[C@H](O[C@@H]2[C@@H](O)[C@H](O)[C@@H](O)[C@H]3OP(=O)(O)O[C@H]32)O[C@H](CO)[C@@H](O[C@H]2O[C@H](CO[C@H]3O[C@H](CO[PH](=O)O)[C@@H](O)[C@H](O)[C@@H]3O[C@H]3O[C@H](CO[PH](=O)O)[C@@H](O)[C@H](O)[C@@H]3O[C@H]3O[C@H](CO)[C@@H](O)[C@H](O)[C@@H]3O)[C@@H](O)[C@H](O)[C@@H]2O)[C@@H]1O
[reply] TRUE

[ask] # repeat for NCCOP(=O)(O)OC[C@H]1O[C@H](OC[C@H]2O[C@H](O[C@H]3[C@H](O)[C@@H](N)[C@H](O[C@@H]4[C@@H](O)[C@H](O)[C@@H](O)[C@H]5OP(=O)(O)O[C@H]54)O[C@@H]3CO)[C@@H](OP(=O)(O)OCCN)[C@@H](O)[C@@H]2O)[C@@H](O[C@H]2O[C@H](CO[PH](=O)O)[C@@H](O)[C@H](O)[C@@H]2O[C@H]2O[C@H](CO)[C@@H](O)[C@H](O)[C@@H]2O)[C@@H](O)[C@@H]1O
[reply] FALSE

[ask] Likewise for N[C@H]1[C@H](O[C@H]2[C@H](O)[C@@H](O)[C@H](OP(=O)(O)O)[C@H](O)[C@@H]2O)O[C@H](CO)[C@@H](O)[C@@H]1O[C@H]1O[C@H](CO[C@H]2O[C@H](CO[PH](=O)O)[C@@H](O)[C@H](O)[C@@H]2O[C@H]2O[C@H](CO[PH](=O)O)[C@@H](O)[C@H](O)[C@@H]2O)[C@@H](O)[C@H](O)[C@@H]1O ?
[reply] FALSE

[ask] Now give it for N[C@H]1[C@H](O[C@H]2[C@H](O)[C@@H](O)[C@H](OP(=O)(O)O)[C@H](O)[C@@H]2O)O[C@H](CO)[C@@H](O)[C@@H]1O[C@H]1O[C@H](CO[C@H]2O[C@H](CO[PH](=O)O)[C@@H](O)[C@H](O)[C@@H]2O[C@H]2O[C@H](CO)[C@@H](O)[C@H](O)[C@@H]2O[C@H]2O[C@H](CO)[C@@H](O)[C@H](O)[C@@H]2O)[C@@H](O)[C@H](O)[C@@H]1O too.
[reply] FALSE
